- Assay target: Aβ42 (Homo sapiens, UniProt P05067)
- Construct: Aβ42 peptides were collected from the entire volume of the cell culture medium and total cell lysates; host or cells: Peptide added to the medium of SH-SY5Y cells; not made by the cells
- Sequence (P05067 672-713 limits assumed): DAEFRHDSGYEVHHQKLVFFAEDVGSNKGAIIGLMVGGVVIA
- Protocol details: Western blot of Aβ42 degradation in SH-SY5Y cells
- Type: cell-based
- Test conditions: SH-SY5Y, Aβ42 + LPS + inhibitor
Readout label: LPS-induced degradation of Aβ42 in the presence of inhibitor

* O=C(N/N=C/c1ccc(O)c(O)c1)c1cc2ccccc2cc1O [dynasore] | suppressed
* CN(C)CCCN1c2ccccc2Sc2ccc(Cl)cc21 [chlorpromazine] | suppressed
